Test: Toxicity test (LD50, intraperitoneal, mice)
Type: in vivo, mouse
Conditions: mouse, in vivo, ip, dd-strain male mice, 18 to 21 g, 3 weeks observation, Probit analysis
Structures can show the parent of a compound that is named as a salt.
Observed property: LD50 at 504 h (mg/kg)

> print(dat)
                                   compound  observed.property  value
1  CC(=O)Oc1c(C)ccc2c1N(C(C)=O)C(S(=O)O)C1CC(/C=C/C(N)=O)=CN1C2=O (centres unmarked)      LD50 at 504 h   2.71
2  CC(=O)N1c2c(ccc(C)c2O)C(=O)N2C=C(/C=C/C(N)=O)CC2C1S(=O)O (centres unmarked)      LD50 at 504 h    2.5
3  Cc1ccc2c(c1O)NC(O)C1CC(/C=C/C(N)=O)=CN1C2=O (single isomer, unassigned)      LD50 at 504 h   0.73
4  CC(=O)Oc1c(C)ccc2c1NC(S(=O)O)C1CC(/C=C/C(N)=O)=CN1C2=O (centres unmarked)      LD50 at 504 h   2.54
5  CC(=O)N1c2c(ccc(C)c2O)C(=O)N2C=C(/C=C/C(N)=O)CC2C1S(=O)(=O)O (centres unmarked) [R1=H, R2=COCH3, R3=SO3 Na, sodium salt]      LD50 at 504 h   2.51
6  Cc1ccc2c(c1OC(N)=O)NC(S(=O)(=O)O)C1CC(/C=C/C(N)=O)=CN1C2=O (centres unmarked)      LD50 at 504 h    2.4
7  COC(=O)Oc1c(C)ccc2c1NC(S(=O)(=O)O)C1CC(/C=C/C(N)=O)=CN1C2=O (centres unmarked)      LD50 at 504 h   2.55
8  CC(=O)N1c2c(ccc(C)c2OC(N)=O)C(=O)N2C=C(/C=C/C(N)=O)CC2C1S(=O)(=O)O (centres unmarked)      LD50 at 504 h    2.8

###

Test: Toxicity test (LD50, intraperitoneal, mice)
Format: in vivo, mouse
Settings: mouse, in vivo, ip, dd-strain male mice, 18 to 21 g, 3 weeks observation, Probit analysis
Some molecules, each annotated with its measured LD50 at 504 h.
Observed property: LD50 at 504 h (mg/kg)

> print(dat)
                                   molecule  value
1  Cc1ccc2c(c1O)NC(S(=O)(=O)O)C1CC(/C=C/C(N)=O)=CN1C2=O (stereo not shown)   2.21
2  CC(=O)Oc1c(C)ccc2c1N(C(C)=O)C(S(=O)(=O)O)C1CC(/C=C/C(N)=O)=CN1C2=O (stereo not shown)   3.04
3  CC(=O)N1c2c(ccc(C)c2OC(N)=O)C(=O)N2C=C(/C=C/C(N)=O)CC2C1S(=O)O (stereo not shown)   2.84
4  Cc1ccc2c(c1O)NC(S(=O)O)C1CC(/C=C/C(N)=O)=CN1C2=O (stereo not shown)   2.18
5  COC(=O)Oc1c(C)ccc2c1NC(S(=O)O)C1CC(/C=C/C(N)=O)=CN1C2=O (stereo not shown)   2.56
6  CC(=O)Oc1c(C)ccc2c1NC(S(=O)(=O)O)C1CC(/C=C/C(N)=O)=CN1C2=O (stereo not shown)   2.68
7  Cc1ccc2c(c1OC(N)=O)NC(S(=O)O)C1CC(/C=C/C(N)=O)=CN1C2=O (stereo not shown)   2.37

Data origin: patent US4309437A
